growth values, listed per item
Test system: COLO 205 colon
Experiment: NCI-60 one-dose screen, 48 h (100 = growth as untreated, 0 = no growth, -100 = all killed)
Conditions: 10 µM unless noted
Experimental: Cells are grown in 96 well plates and exposed to the test compound for 48 hours. Compounds are tested at a single concentration, which is 10^-5 M for most compounds. The reported endpoint is percent growth (GI% or GIPRCNT), where numbers from 0 - 100% represent growth inhibition, and numbers from -100% - 0 represent cell death. For example, a value of 40 represents 60% growth inhibition. A value of 0 means no net growth occurred over the course of the experiment. […]
This is part of a sample that, as a whole, favours compounds with a hit. Of some 83,000 tested, about 20% had one in any assay.
MEASUREMENT TYPE: growth (%)

> print(dat)
                                    compound  assay.result
 1  Fc1ccc(-c2cc3nc(C(Cl)Cl)nc(-c4ccco4)n3n2)cc1         -45.4
 2  CNC(=O)c1c(NC(=O)c2ccccc2C(F)(F)F)sc2c1CCC(=O)C2          16.2
 3  O=C(NCCn1ccnc1)c1ccc(-c2nc3ccc4[nH]ncc4c3c3c2CCCC3)cc1          56.1
 4  CCCn1cnc2c(c1=N)C(c1ccc(OC)cc1)c1sc3c(CC)cccc3c1O2 (stereo not given)          13.9
 5  O=c1[nH]c2ccccc2cc1CSc1ccccc1Nc1nccc(-c2ccc(Cl)cc2)n1           125
 6  COc1cc(OC)c(S(N)(=O)=O)cc1C(=O)/C=C/c1ccc(Cl)cc1           -30
 7  O=C(CCC(=O)N1CCOCC1)OCCCCCCSc1ccc([N+](=O)[O-])c2nonc12         -56.7
 8  NS(=O)(=O)c1ccc(Nc2nc(N/N=C/CCc3ccccc3)nc(Nc3ccccc3)n2)cc1           105
 9  COc1ccc(/C(N)=N/C(N)=N/c2nc3ccccc3s2)cc1           103
10  O=C1C(c2ccccc2)=C(N2CCc3ccccc32)OC1(Cl)Cl         -8.41

---

Tested on: RPMI-8226 leukemia
Experiment: NCI-60 one-dose screen, 48 h
Conditions: 10 µM unless noted
The panel holds about 83,000 compounds, 20% with a hit somewhere; the sample as a whole holds those more often. Active and inactive are the calls of the source. Rule for the calls: active = growth percent below 10; inactive = the rest.
Possible outcomes: class 1 for active, class 0 for inactive

> print(dat)
                                    compound                 tgt  category.label
 1  NS(=O)(=O)c1ccc(Nc2nc(SCc3ccccc3)nc3ccccc23)cc1  RPMI-8226 leukemia         class 0
 2  O=C(CN1CCN(c2cc(=O)[nH]c3ccc(F)cc23)CC1)Nc1ccc(Cl)cc1  RPMI-8226 leukemia         class 0
 3  CC1(C)CC[C@]23CC[C@]4(C)[C@H](CC[C@@H]5[C@@]6(C)CCCN(CO)C(C)(C)[C@@H]6CC[C@]54C)[C@H]2[C@H]1OC3  RPMI-8226 leukemia         class 0
 4  Nc1ncc(-c2ccc3ncnc(N4CCc5cc(F)c(Cl)cc54)c3c2)cn1  RPMI-8226 leukemia         class 1
 5  CCN(CC)c1ccc2c(c1)Oc1nc(N)c(C#N)c(N)c1C2Sc1ccc(F)cc1 (stereo not given)  RPMI-8226 leukemia         class 1
 6     CCN(CC)c1cn(-c2ccc(S(N)(=O)=O)cc2)nn1  RPMI-8226 leukemia         class 0
 7  COc1ccc([C@H]2c3[nH]c4ccccc4c3C[C@H]3C(=O)N(C4CCN(Cc5c(Cl)cccc5Cl)CC4)CC(=O)N23)c(OC)c1  RPMI-8226 leukemia         class 0
 8  Nc1nc(-c2cccc([N+](=O)[O-])c2)c(N=Nc2ccccc2)s1  RPMI-8226 leukemia         class 0
 9  CCN(CC)c1ccc2c(c1)Oc1nc(N)c(C#N)c(N)c1C2Sc1ccc(C)cc1 (stereo not given)  RPMI-8226 leukemia         class 1
10         C#CCC#CCN1CCC[C@H]1C(=O)NCC(=O)OC  RPMI-8226 leukemia         class 0
11  CCCn1cnc2c(c1=N)C(c1ccc(OC)cc1)c1sc3c(C)cccc3c1O2 (stereo not given)  RPMI-8226 leukemia         class 1
12   COc1ccccc1NC1=C(Cl)C(=O)c2nc(C)ccc2C1=O  RPMI-8226 leukemia         class 1
13  O=S(=O)(NC1c2ccccc2C[C@H]1O)c1ccc(Cl)cc1Cl (stereo not given in full)  RPMI-8226 leukemia         class 0
14  Oc1cccc2ccc(-c3nnc(SCc4ccc(O)c5ncccc45)o3)nc12  RPMI-8226 leukemia         class 1
15  C=CCn1c(SCC(=O)Nc2ccc(C(=O)/C=C/c3ccc(C)cc3)cc2)nnc1-c1c[nH]c2ccccc12  RPMI-8226 leukemia         class 0
16  CS(=O)(=O)c1ccc(-n2cc(/C=N/O)c(-c3ccccc3)n2)cc1  RPMI-8226 leukemia         class 0
17  N#Cc1c(-c2cccs2)cc(-c2cnccn2)nc1SCC(=O)Nc1ccc(Br)cc1  RPMI-8226 leukemia         class 0
18  c1cn2c(ccc3nc(-c4cn[nH]c4)c4c(c32)CCCC4)n1  RPMI-8226 leukemia         class 0
19  COc1ccc(NC(=O)CSc2nnc(-c3ccc4nc(-c5ccc(OC)c(OC)c5)[nH]c4c3)o2)cc1OC  RPMI-8226 leukemia         class 0
20  O=C(CN1CCN(c2cc(=O)n(-c3ccccc3)c3ccccc23)CC1)Nc1ccc(F)cc1  RPMI-8226 leukemia         class 0
